Origin of values: patent US20260008852A1

# Target or system: T1, his-tagged B7-H3 (UniProt Q5ZPR3-2 29-245, limits assumed)
# T1 construct: also called CD276; not shown: His tag
# T1 sequence (looked up): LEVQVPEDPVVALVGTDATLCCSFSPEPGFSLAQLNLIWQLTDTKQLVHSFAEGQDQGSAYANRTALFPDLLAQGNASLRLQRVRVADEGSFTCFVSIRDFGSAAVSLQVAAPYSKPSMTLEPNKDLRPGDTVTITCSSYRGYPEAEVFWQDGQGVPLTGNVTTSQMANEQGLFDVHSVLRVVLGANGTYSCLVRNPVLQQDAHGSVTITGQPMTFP
# Test protocol: SPR, Carterra LSA; binder captured by anti-human Fc, his-tagged B7-H3 injected
Property measured: koff (s⁻¹)
Your answer should be a plain number; it is taken to be in s⁻¹.

40511p1.2.G10 scFv-Fc (scFv, V domains shown, Tested as scFv-Fc supernatant) VH: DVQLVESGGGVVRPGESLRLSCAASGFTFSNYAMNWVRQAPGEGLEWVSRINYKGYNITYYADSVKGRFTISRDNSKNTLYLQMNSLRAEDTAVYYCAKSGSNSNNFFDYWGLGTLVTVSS VL: EIVLTQSPGTLSLSPGERATLSCRASQTVGSKLAWYQQKPGQAPRLLIYGASTRATDIPDRFSGSGSGTEFTLTISSLQSEDFAVYYCQQYINWPPLSFGGGTKVEIK | 0.01

Ask: Please list koff recorded for the binder 40511p1.2.B5 scFv-Fc (scFv, V domains shown) VH: DVQLVESGGGVVRPGESLRLSCAASGFTFSSYAMSWVRQAPGEGLEWVSSISGSGGSTLYADSVKGRFTISRDSSNNSLYLQMNSLRAEDTAVYYCAKARNNFFDYWGLGTLVTVSS VL: EIVLTQSPGTLTLSPGERATLSCRASRSILTSLAWYQQRPGQTPRLLIYGANSRATGIPDRFSGSGSGTEFTLTISSLQSEDFAVYYCQQYYDWLTITFGGGTKVEIK
Reply: 0.05

Ask: Using known records, supply koff for 40511p1.1.G1 scFv-Fc (scFv, V domains shown, Tested as scFv-Fc supernatant) VH: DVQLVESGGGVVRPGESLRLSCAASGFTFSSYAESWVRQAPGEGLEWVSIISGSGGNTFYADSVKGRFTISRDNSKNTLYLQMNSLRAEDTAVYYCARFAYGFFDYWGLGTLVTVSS VL: EIVLTQSPGTLSVSPGEGATLSCRASQTVGSKLAWYQQKPGQPPSLLIYDASTRATGIPDRFSGSGSGTDFTLTISSLQSEDFAVYYCQQYRNWPPLTFGGGTKVEIK
Reply: 0.02
